Each record here notes measured IC50.
- target_or_test_system: PRMT5 (Homo sapiens)
- Construct: purchased Viva (custom protein)
- test_protocol: PRMT5 biochemical IC50 assay with MTA as cofactor
- assay_setup: PRMT5, MTA as cofactor; read-out: MTA IC50

CNc1nc2cc([C@H]3CC[C@H](C)CN3C(=O)C(=O)Nc3cncc(C(N)=O)c3)ccc2s1 (single isomer, unassigned) [Compound 862]; > 500 nM
C[C@@H]1CC[C@@H](c2cccc(OC(F)(F)F)c2)N(C(=O)C(=O)Nc2cncc(C(N)=O)c2)C1 (racemic) [Compound 279]; < 50 nM

[Q] Any idea what its IC50 is? The molecule is Cc1cc(NC(=O)C(=O)N2C[C@H](C)CC[C@H]2C2CCC(C(C)(C)C)CC2)cnc1N (mixture of isomers) [Compound 145]
[A] < 50 nM

[Q] Any idea what its IC50 is? The molecule is NC(=O)c1cncc(NC(=O)C(=O)N2C[C@@H]3CC[C@@H](C3)[C@@H]2c2cccs2)c1 (racemic) [Compound 79]
[A] 50 to 500 nM

* * *

- target_or_test_system: PRMT5 (Homo sapiens)
- Construct: purchased Viva (custom protein)
- test_protocol: PRMT5 biochemical IC50 assay with MTA as cofactor
- assay_setup: PRMT5, MTA as cofactor; read-out: MTA IC50
Each record here notes measured IC50.

C[C@@H]1CC[C@H](c2cc(F)cc(Cl)c2)N(C(=O)C(=O)Nc2cncc(C(N)=O)c2)C1 (single isomer, unassigned) [Compound 625]; 50 to 500 nM
Cc1cc(NC(=O)C(=O)N2C[C@H](C)CC[C@H]2c2cccc(C3CCN(C)CC3)c2)cnc1N (single isomer, unassigned) [Compound 1291]; > 500 nM
Cc1ccc([C@@H]2CC[C@@H](C)CN2C(=O)C(=O)Nc2cnc(N)c(C)c2)cn1 (single isomer, unassigned) [Compound 687]; < 50 nM
CCc1cc(NC(=O)C(=O)N2C[C@@H](C)CC[C@@H]2c2ccc3sc(NC)nc3c2)cnc1N (single isomer, unassigned) [Compound 884]; < 50 nM
CC(=O)N1CCC(c2cccc([C@@H]3CC[C@@H](C)CN3C(=O)C(=O)Nc3cnc(N)c(C)c3)c2)CC1 (single isomer, unassigned) [Compound 331]; > 500 nM
COc1ncc(NC(=O)C(=O)N2C[C@@H](C)CC[C@@H]2c2ccc3sc(C[C@@H](C)N(C)C)nc3c2)cc1C(N)=O [Compound 1317]; < 50 nM

[Q] Any idea what its IC50 is? The compound is Cc1cncc(NC(=O)C(=O)N2C[C@@H](C)CC[C@@H]2c2cccs2)c1 (racemic) [Compound 60]
[A] 50 to 500 nM

[Q] Any idea what its IC50 is? The compound is Cc1nc2cc([C@H]3CC[C@H](C)CN3C(=O)C(=O)Nc3cnc(N)c(C)c3)ccc2[nH]1 (single isomer, unassigned) [Compound 947]
[A] < 50 nM

[Q] Any idea what its IC50 is? The compound is Cc1cc([C@H]2CC[C@H](C)CN2C(=O)C(=O)Nc2cncc(C(N)=O)c2)ccn1 (single isomer, unassigned) [Compound 534]
[A] < 50 nM

[Q] Any idea what its IC50 is? The compound is Cc1cc(NC(=O)C(=O)N2C[C@@H](C)CC[C@@H]2c2ccc(-c3cncs3)cc2)cnc1N (single isomer, unassigned) [Compound 887]
[A] < 50 nM

[Q] Any idea what its IC50 is? The compound is CCc1cc(NC(=O)C(=O)N2C[C@@H](C)CC[C@@H]2c2ccc(N)nc2)cnc1N (single isomer, unassigned) [Compound 851]
[A] < 50 nM

[Q] Any idea what its IC50 is? The compound is CCc1cc(NC(=O)C(=O)N2C[C@@H](C)CC[C@@H]2c2ccc3sc(C4CCN(C5CC5)CC4)nc3c2)cnc1N [Compound 1330]
[A] < 50 nM

[Q] Any idea what its IC50 is? The compound is C[C@@H]1CC[C@@H](c2cncc(F)c2)N(C(=O)C(=O)Nc2cncc(C(N)=O)c2)C1 (racemic) [Compound 248]
[A] 50 to 500 nM

* * *

- Tested on: HAP1 MTAP-intact cell line
- test_protocol: SDMA in-cell western assay, HAP1 MTAP-intact
- Assay type: cell-based
- assay_setup: Homo sapiens, HAP1, SDMA in-cell western, HAP1 MTAP-intact; read-out: MTAP HAP1 intact IC50
Each record here notes measured IC50.

Solved cases below.
CCc1cc(NC(=O)C(=O)N2C[C@@H](C)CC[C@@H]2c2ccc3sc([C@H]4CCN(C)C4)nc3c2)cnc1N (single isomer, unassigned); < 100 nM
C[C@H]1CC[C@H](C2CCCCC2)N(C(=O)C(=O)Nc2cncc(C(N)=O)c2)C1 (single isomer, unassigned); > 1000 nM

# evaluate next
[Q] Param readout = IC50; param system = HAP1 MTAP-intact cell line; param query = CCc1cc(NC(=O)C(=O)N2C[C@@H](C)CC[C@@H]2c2ccc3sc(C4CCN(CCC(F)(F)F)CC4)nc3c2)cnc1N ; response: value
[A] < 100 nM

* * *

Each record here notes measured IC50.
- target_or_test_system: PRMT5 (Homo sapiens, UniProt O14744)
- Construct: purchased Viva (custom protein)
- Sequence (O14744 whole entry): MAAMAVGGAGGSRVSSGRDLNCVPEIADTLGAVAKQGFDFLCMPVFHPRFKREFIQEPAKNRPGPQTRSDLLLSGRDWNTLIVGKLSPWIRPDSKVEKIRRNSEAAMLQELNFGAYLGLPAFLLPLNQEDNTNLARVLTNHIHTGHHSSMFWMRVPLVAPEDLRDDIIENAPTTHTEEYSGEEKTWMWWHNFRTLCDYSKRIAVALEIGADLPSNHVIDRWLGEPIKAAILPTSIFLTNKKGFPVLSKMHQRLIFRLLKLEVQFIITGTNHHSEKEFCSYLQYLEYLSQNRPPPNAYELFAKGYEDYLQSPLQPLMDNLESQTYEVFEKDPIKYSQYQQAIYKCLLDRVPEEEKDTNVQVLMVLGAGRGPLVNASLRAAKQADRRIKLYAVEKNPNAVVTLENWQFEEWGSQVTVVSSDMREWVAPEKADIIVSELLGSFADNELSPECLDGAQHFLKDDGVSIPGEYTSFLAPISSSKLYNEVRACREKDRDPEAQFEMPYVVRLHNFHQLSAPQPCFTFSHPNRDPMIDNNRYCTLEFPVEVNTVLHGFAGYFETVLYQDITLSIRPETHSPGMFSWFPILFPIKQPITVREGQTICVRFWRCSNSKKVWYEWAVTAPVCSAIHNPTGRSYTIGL
- Sequence (Q9BQA1 whole entry partner): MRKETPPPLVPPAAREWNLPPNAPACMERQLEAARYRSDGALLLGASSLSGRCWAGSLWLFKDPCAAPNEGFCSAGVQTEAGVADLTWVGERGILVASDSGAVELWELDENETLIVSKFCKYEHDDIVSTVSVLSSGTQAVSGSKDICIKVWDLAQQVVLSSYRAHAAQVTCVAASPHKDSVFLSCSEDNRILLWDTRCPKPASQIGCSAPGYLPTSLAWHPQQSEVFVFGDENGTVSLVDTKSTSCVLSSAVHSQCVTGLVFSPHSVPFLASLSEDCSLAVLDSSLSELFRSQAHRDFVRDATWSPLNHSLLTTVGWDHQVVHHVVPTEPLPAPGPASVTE
- test_protocol: PRMT5 biochemical IC50 assay with no cofactor
- assay_setup: PRMT5, no cofactor; read-out: No Cofactor/rel IC50

Solved cases below.
C[C@@H]1[C@@H](C)CC[C@H](c2ccccc2)N1C(=O)C(=O)Nc1cncc(C(N)=O)c1 (single isomer, unassigned); > 500 nM
Cc1cc(NC(=O)C(=O)N2C[C@H](C)CC[C@H]2c2ccc(C(N)=O)s2)cnc1N (racemic) [Compound 644]; 50 to 500 nM

[Q] Param readout = IC50; param system = PRMT5 (Homo sapiens, UniProt O14744); param query = Cc1cc(NC(=O)C(=O)N2C[C@H](C)CC[C@H]2c2cccc3c2CC(=O)N3)cnc1N (racemic) ; response: value
[A] 50 to 500 nM

* * *

- target_or_test_system: PRMT5 (Homo sapiens, UniProt O14744)
- Construct: purchased Viva (custom protein)
- test_protocol: PRMT5 biochemical IC50 assay with MTA as cofactor
- assay_setup: PRMT5, MTA as cofactor; read-out: MTA IC50
pIC50: −log10 of the molar value.
result_type: pIC50

Solved cases below.
CCc1cc(NC(=O)C(=O)N2C[C@@H](C)CC[C@@H]2c2ccc3sc(CN4CCOCC4)nc3c2)cnc1N; > 7.30
CCc1cc(NC(=O)C(=O)N2C[C@@H](C)CC[C@@H]2c2cc3[nH]ncc3s2)cnc1N (single isomer, unassigned); < 6.30
CC(=O)Nc1ccc([C@@H]2CC[C@@H](C)CN2C(=O)C(=O)Nc2cnc(N)c(C)c2)s1 (single isomer, unassigned); > 7.30

[Q] Any idea what its pIC50 is? The compound is NC(=O)c1cncc(NC(=O)C(=O)N2C[C@H](OC(F)(F)F)CC[C@H]2c2ccccc2)c1 (racemic)
[A] 6.30 to 7.30

[Q] Any idea what its pIC50 is? The compound is Cc1cc(NC(=O)C(=O)N2C[C@H](C)CC[C@H]2c2ccc3nn(C)cc3c2)cnc1N (racemic) [Compound 912]
[A] 6.30 to 7.30

[Q] Any idea what its pIC50 is? The compound is CCc1cc(NC(=O)C(=O)N2C[C@H](C)CC[C@H]2c2ccc(C(=O)NC)s2)cnc1N (single isomer, unassigned)
[A] < 6.30

[Q] Any idea what its pIC50 is? The compound is Cc1cc(NC(=O)C(=O)N2C[C@@H](C)CC[C@@H]2c2ccc(CO)cc2)cnc1N (single isomer, unassigned)
[A] > 7.30

[Q] Any idea what its pIC50 is? The compound is Cc1cc(NC(=O)C(=O)N2C[C@H](C)CC[C@H]2c2cc(F)c(F)c(F)c2)cnc1N (single isomer, unassigned)
[A] > 7.30

* * *

- Tested on: HAP1 MTAP-deleted cell line
- test_protocol: SDMA in-cell western assay, HAP1 MTAP-deleted
- Type: cell-based
- assay_setup: Homo sapiens, HAP1, SDMA in-cell western, HAP1 MTAP-deleted; read-out: HAP1 MTAP deleted IC50
pIC50: −log10 of the molar value.
Each record here notes measured pIC50.

Solved cases below.
CNC(=O)[C@@H]1CC[C@@H](c2ccccc2)N(C(=O)C(=O)Nc2cnc(N)c(C)c2)C1 (racemic); < 6.00
Cc1cc(NC(=O)C(=O)N2C[C@H](C)CC[C@H]2C2CCCN(C)C2)cnc1N (mixture of isomers); < 6.00
CCc1cc(NC(=O)C(=O)N2C[C@@H](C)CC[C@@H]2c2ccc3sc(C4(CN(C)C)COC4)nc3c2)cnc1N; > 7.00
C[C@@H]1CC[C@@H]2CCCC[C@@H]2N1C(=O)C(=O)Nc1cncc(C(N)=O)c1 (single isomer, unassigned); < 6.00
CNc1nc2cc([C@@H]3CC[C@@H](C)CN3C(=O)C(=O)Nc3cncc(C(N)=O)c3)ccc2s1 (single isomer, unassigned); > 7.00
CCc1cc(NC(=O)C(=O)N2C[C@@H](C)CC[C@@H]2c2ccc(CCN(C)C)cc2)cnc1N; > 7.00
C[C@@H]1CC[C@@H](c2ccc(NCC(=O)N(C)C)cc2)N(C(=O)C(=O)Nc2cncc(C(N)=O)c2)C1 (single isomer, unassigned); > 7.00
Cc1ncc(NC(=O)C(=O)N2C[C@H](C)CC[C@H]2c2ccccc2)cc1C(N)=O (single isomer, unassigned); < 6.00

[Q] Param readout = pIC50; param system = HAP1 MTAP-deleted cell line; param query = C[C@H]1CC[C@H](c2ccc3sc(C4CCN(C)CC4)nc3c2)N(C(=O)C(=O)Nc2cnc(N)c(C(F)(F)F)c2)C1 ; response: value
[A] > 7.00

[Q] Param readout = pIC50; param system = HAP1 MTAP-deleted cell line; param query = C[C@@H]1CC[C@@H](c2cccs2)N(C(=O)C(=O)Nc2cncc(C(N)=O)c2)C1 (single isomer, unassigned) ; response: value
[A] < 6.00
